Below, each entry is listed with its recorded TGI.
# Test system: K-562 leukemia
# method: NCI tumour cell line growth inhibition, 48 h
Note: unit µM is implicit; provide only the numeric part.

Worked examples follow.
compound=c1ccc2c(c1)c1c(n2CCOCCN2CCCCC2)CCCC1 units_symbol=µM value_measured=26.7
compound=COc1c(O)c2ccccc2c2cc(O)ccc12 units_symbol=µM value_measured=21.9
compound=COc1ccc(NC(=O)c2ccc(NC3=C(Cl)C(=O)N(Cc4ccccc4)C3=O)cc2)cc1 units_symbol=µM value_measured=64.8
compound="COC(c1ccsc1)C(C#N)(C#N)N=Cc1ccsc1 (centres undefined)" units_symbol=µM value_measured=49.3

Kindly review the next compound as well.
Quick one: give measured TGI for Cc1cc(NS(=O)(=O)c2ccc(NC(=O)c3ccc4nc5ccccc5c(Nc5ccc(S(=O)(=O)N=C(N)N)cc5)c4c3)cc2)no1
27.7
